Tested on: L1210 leukemia ip in BDF1 mice, survival T/C
protocol: NCI In Vivo Anticancer Drug Screen. Data for tumor model L1210 Leukemia (intraperitoneal) in B6D2F1 (BDF1) mice
conditionLabel: endpoint: mean survival time; dose: 100.0 mg/kg/injection; schedule: Q04DX003 (ip); vehicle: saline with Tween-80; higher = longer survival
Protocol: The antitumor activity of compounds was measured in mice bearing transplantable tumors. Survival or tumor size were measured and the results are expressed as the measurement made in the treated group (T) divided by the measurement made in the vehicle treated control group (C). The tumor model used in this assay is L1210 Leukemia (intraperitoneal) in B6D2F1 (BDF1) mice
Toxic doses and inconclusive results are not listed.
quantity: T/C

compound=O=C(CCCCC(=O)N/N=C\c1ccccc1O)N/N=C\c1ccccc1O valuemeasured="87 % of control"

Query: Missing value: T/C, L1210 leukemia ip in BDF1 mice, survival T/C, entry CC1OC(=O)NC1C(=O)O (configuration not stated) . Fill in?
Reply: 106 % of control

Query: Missing value: T/C, L1210 leukemia ip in BDF1 mice, survival T/C, entry OCCN1CCC2(CC1)SSC1(CCN(CCO)CC1)S2 . Fill in?
Reply: 100 % of control

Query: Missing value: T/C, L1210 leukemia ip in BDF1 mice, survival T/C, entry CC(C)(C)c1ccc(OS(=O)(=O)c2cccc([N+](=O)[O-])c2)cc1 . Fill in?
Reply: 104 % of control

Query: Missing value: T/C, L1210 leukemia ip in BDF1 mice, survival T/C, entry CCN(C(=O)Nc1ccc(Cl)cc1)c1ccccc1C . Fill in?
Reply: 91 % of control

Query: Missing value: T/C, L1210 leukemia ip in BDF1 mice, survival T/C, entry CCOC(=O)c1nc2cc(C)c(C)cc2[nH]c1=O . Fill in?
Reply: 92 % of control

Query: Missing value: T/C, L1210 leukemia ip in BDF1 mice, survival T/C, entry O=C(NCO)NC1NC(=O)NC1=O (configuration not stated) . Fill in?
Reply: 101 % of control

---

Test system: L1210 leukemia ip in BDF1 mice, survival T/C
protocol: NCI In Vivo Anticancer Drug Screen. Data for tumor model L1210 Leukemia (intraperitoneal) in B6D2F1 (BDF1) mice
conditionLabel: endpoint: mean survival time; dose: 50.0 mg/kg/injection; schedule: Q01DX001 (ip); vehicle: carboxymethylcellulose (CMC); higher = longer survival
Toxic doses and inconclusive results are not listed.
Parameter: T/C. Scope: all listed entries.

Query: Can you look up the measured T/C of O=C(Nc1ccccc1)Nc1cccc(C(F)(F)F)c1 for me?
Reply: 104 % of control

Query: Can you look up the measured T/C of c1ccc2c(c1)ccc1c[n+]3c(ccc4ccccc43)cc12 for me?
Reply: 108 % of control

Query: Can you look up the measured T/C of CCOC(=O)C1CCc2c(ccc3ccccc23)N1 (stereo not given) for me?
Reply: 100 % of control

Query: Can you look up the measured T/C of CSc1ncc(CO)c(N)n1 for me?
Reply: 111 % of control

Query: Can you look up the measured T/C of COc1ccc2c(c1)CCC(=O)O2 for me?
Reply: 100 % of control

---

Parameter: T/C. Scope: all listed entries.
System: L1210 leukemia ip in BDF1 mice, survival T/C
protocol: NCI In Vivo Anticancer Drug Screen. Data for tumor model L1210 Leukemia (intraperitoneal) in B6D2F1 (BDF1) mice
conditionLabel: endpoint: mean survival time; dose: 100.0 mg/kg/injection; schedule: Q01DX Z (ip); vehicle: methylcellulose (MC); higher = longer survival
Inconclusive results and toxic doses are left out.

smilesrecord=Nc1cc(C(=O)O)[nH]c(=O)n1 valuemeasured="97 % of control"
smilesrecord=Cc1cccc(Nc2cc(=S)nc(N)[nH]2)c1 valuemeasured="98 % of control"
smilesrecord=Clc1ccc(Cl)c(Nc2ccnc(SCc3ccccc3)n2)c1 valuemeasured="92 % of control"

Okay, now this compound:
Query: Missing value: T/C, L1210 leukemia ip in BDF1 mice, survival T/C, entry Nc1nc(I)c2[nH]cnc2n1 . Fill in?
Reply: 108 % of control

Measured values drawn from PubChem BioAssay AID248 for this set.
